The origin of these recorded values is a melting point compilation (Tetko et al.; mined from patent text by program, amines drawn as free bases though some values may be those of a salt).

// reported melting point per item

Would you please look over these solved cases?
> print(dat)
                                   compound       observed
1  O=C(NC(=O)c1c(Cl)cccc1Cl)Nc1cc(Br)c(Br)cc1C(F)(F)F         204 °C
2             CCCCCCNc1nc(Cl)nc2c(SC)ncnc12    80 to 82 °C
3  COc1c(N2CCC(C(O)CO)CC2)c(F)cc2c(=O)c(C(=O)O)cn(C3CC3)c12 (centres undefined)  200 to 204 °C

Fill in reported melting point for this entry: CCNC(=O)Nc1ccc(N(C)C)cc1C(=O)NCC1CCN(C(c2ccccc2)c2ccccc2)CC1
186 to 188 °C

* * *

// reported melting point per item
# unit: °C | format: bare number

> print(dat)
                               smiles.input  observed
1  CNC(=O)[C@@H]1C[C@H](OC)CN1S(=O)(=O)c1ccc(Cl)c(COc2cccc3c(-n4ccnc4)cc(C)nc23)c1Cl        64

Now for a further molecule.
Fill in reported melting point for this entry: Cc1cc(C)cc(Oc2cc(Br)cc(S(=O)(=O)N3CCN(C(=O)OC(C)(C)C)CC3)c2)c1
155

* * *

// reported melting point per item

Would you please look over these solved cases?
> print(dat)
                                   compound       observed
1  O=C(/C=C/c1ccc(S(=O)(=O)N2CCN(c3cccc(C(F)(F)F)c3)CC2)cc1)NO  178 to 179 °C
2  CCOCc1nc2c(N)nc3ccc(O)cc3c2n1CCCCN(C(N)=O)c1ccccc1  218 to 221 °C
3  COc1cccc2c1nc(C(F)F)n2-c1nc(N2CCOCC2)nc(N2CCC(NS(=O)(=O)C(F)(F)F)CC2)n1  282 to 285 °C
4  CC(C)c1ccc(C(=O)[C@@H]2C[C@H]2c2ccccc2)c(C(C)C)c1OS(N)(=O)=O (relative stereo)  166 to 168 °C
5  CN1C(=O)CCC2(C)c3ccc(C(=O)c4ccccc4Cl)cc3CCC12 (stereo not drawn)  105 to 115 °C

Fill in reported melting point for this entry: O=c1oc2c(c(O)c1C(c1ccccc1)C1CC1)CCCCC2CC1CC1 (stereo not drawn)
77 to 83 °C

* * *

// reported melting point per item

Would you please look over these solved cases?
> print(dat)
                                   compound       observed
1  CCCCC(CC)C(=O)Nc1ccc2ccn(Cc3ccc(C(=O)OC)cc3)c2c1 (stereo not drawn)  139 to 141 °C
2               CCCn1cc(-c2ccncc2)cc(N)c1=O  171 to 173 °C
3  O=C(c1ccc(F)cc1)C1CCN(CCCn2c(=S)[nH]c3ccccc32)CC1         149 °C
4  N#CN1CCN(c2nn(S(=O)(=O)c3ccccc3)c3cc(F)ccc23)CC1  178 to 180 °C

Fill in reported melting point for this entry: Cc1c(C2CCC(c3ccccc3)(N(C)C)CC2)[nH]c2ccc(F)cc12 (stereo not drawn)
199 to 205 °C

Fill in reported melting point for this entry: COc1ccc2c(-c3ccccc3)csc2c1
58 to 59 °C

Fill in reported melting point for this entry: COC(=O)CC[C@@H](Cc1cn(CCCc2ccccc2)c2ccccc12)NC(=O)CCCCCCc1ccccc1
79.4 to 81 °C

Fill in reported melting point for this entry: Cc1cc(CC(=O)OC(C)(C)C)ccc1NC(=O)Nc1ccccc1
143 to 145 °C

Fill in reported melting point for this entry: CC/C(=C\C=C\C(=O)O)c1ccc(OC)cc1
136 to 137 °C

Fill in reported melting point for this entry: CCC(O)(CC)Cc1ccc(NC(=O)OCc2ccccc2)cc1
99 to 100 °C

Fill in reported melting point for this entry: CCN(C(=O)C(C)n1c(=O)n(C)c2nc(-c3ccccc3)ncc21)c1ccccc1 (stereo not drawn)
150 to 151 °C

Fill in reported melting point for this entry: O=C(C[N+](=O)[O-])c1ncn(Cc2ccccc2)c1[N+](=O)[O-]
105 to 107 °C

* * *

readout label: melting point

Would you please look over these solved cases?
> print(dat)
                                   compound       observed
1                             OCc1ccc(I)nc1         102 °C
2  O=C(COc1cc(Cl)c(Cl)c([N+](=O)[O-])c1)c1ccccc1  118 to 126 °C
3                CCOC(=O)c1cnc2nn(C)cc2c1NC  178 to 180 °C
4  CC(C)(c1ccc2ncccc2c1)n1nnc2ccc(-c3cnn(CCO)c3)nc21    95 to 98 °C
5  COC(=O)c1ccc(-c2nc(-c3ccc(C(C)(C)C)cc3)no2)c(N)c1  195 to 196 °C

Fill in reported melting point for this entry: CCOC(=O)c1cc2c(C)ccc(N(C)S(=O)(=O)c3cccnc3Cl)c2[nH]1
158 to 159 °C

Fill in reported melting point for this entry: C[C@@H]1CN(C(=O)OC(C)(C)C)C[C@H]2Cc3cc(F)c(CO)nc3N21
91 to 93 °C

Fill in reported melting point for this entry: COc1ccc(OCCc2ccccc2)c(CC(=O)O)c1
56.5 to 57.5 °C

Fill in reported melting point for this entry: OC(c1ccncc1)(c1ccc(F)c(F)c1)c1ccc(F)c(F)c1
147 to 149 °C

Fill in reported melting point for this entry: CC12CCC3c4cc(OCC(F)(F)F)c(O)cc4C(=NO)CC3C1CCC2O (stereo not given)
187 to 191 °C

Fill in reported melting point for this entry: COC(=O)C1=C(C)NC(=S)N(S(C)(=O)=O)C1c1cccc([N+](=O)[O-])c1 (stereo not given)
188 to 190 °C

Fill in reported melting point for this entry: CC(C)(C)c1cc2c(c(C(C)(C)C)c1)OCC(/C=C/C=C/C=C/C(=O)O)=C2
166 to 168 °C

Fill in reported melting point for this entry: COc1cc(O)c(C=O)cc1C(C)(C)C
75 to 78 °C

Fill in reported melting point for this entry: CCCCOc1nccnc1C1(O)CN2CCC1CC2 (stereo not given)
107 to 108 °C

Fill in reported melting point for this entry: CCOC(=O)C1=C(C)NC(CO)=C(C(=O)OCC)C1c1ccccc1/C=C/C(=O)OC(C)(C)C (stereo not given)
163 to 164 °C

Fill in reported melting point for this entry: CCCCOc1cc(C(N)=O)nn1Cc1ccc(Cl)cc1
137 to 138 °C

Fill in reported melting point for this entry: O=C(Cn1c(=O)sc2ncc(Cl)cc21)N1CCN(CCO)CC1
198 to 200 °C

Fill in reported melting point for this entry: CS(=O)c1ccc(-c2nc3ncccc3[nH]2)cc1 (stereo not given)
240 to 242 °C

Fill in reported melting point for this entry: O=C(O)c1cnncc1C(=O)c1cc(F)ccc1F
202 to 205 °C

Fill in reported melting point for this entry: N#CCC(=O)Nc1ccc(OCc2cccc(F)c2)cc1
164 to 166 °C

* * *

// reported melting point per item

Would you please look over these solved cases?
> print(dat)
                                   compound       observed
1  Cc1cccc(-c2sc(N)nc2-c2ccnc(-c3ccc(CN(C)C)cc3)c2)n1         210 °C
2  COc1cc2c(c3c1OC(C)(C)C3)C(c1cccc(C(=O)NC3CCNC3=O)c1)=NC(C)(C)C2 (stereo unspecified)  191 to 193 °C
3   CC(C)N(C(=O)CC=C1CSC(N)=N1)c1ccc(Cl)cc1  145 to 147 °C
4  COc1cc(OC)cc(-c2cc(=O)c3ccc(OCCCBr)cc3o2)c1  173 to 174 °C
5           N#CCC(CC#N)c1cccc(OCc2ccccc2)c1  140 to 143 °C
6          Nc1c(Br)cc(Cl)cc1C(=O)c1ccccc1Cl  100 to 101 °C

Fill in reported melting point for this entry: O=C(O)c1oc2ccc(Cl)cc2c1-c1ccccc1
247 to 248 °C

Fill in reported melting point for this entry: CC(C)(C)OC(=O)NC1Cc2ccc(NC(=O)c3ccccc3-c3ccc(C(F)(F)F)cc3)cc2C1 (stereo unspecified)
198 to 201 °C

Fill in reported melting point for this entry: C#CCN1C(=O)CCc2cc(Cl)cc(Cl)c21
92 to 95 °C

Fill in reported melting point for this entry: CCCCCc1c(C(=O)NN2CC=CCC2)nn(-c2ccc(Cl)cc2Cl)c1-c1ccc(Cl)cc1
150 °C

Fill in reported melting point for this entry: CN1CCN(c2cccc3c2C[C@H](NS(C)(=O)=O)CC3)CC1
135 to 137 °C

* * *

readout label: melting point (°C)
# unit: °C | format: bare number

> print(dat)
             compound  readout.label  observed
1  NC(CSc1ccccc1N)=NO  melting point        80

Now for a further compound.
Fill in reported melting point for this entry: COc1ccc2ccc(N3C(=O)c4ccccc4C3OC(=O)CCC(C)C)nc2n1 (centres undefined)
133
